# study_target: T1, recombinant mouse IL-25 protein (mouse, UniProt Q8VHH8 17-169)
# T1 construct: Bought (Sino Biological Inc, catalog no: 50138-M07H)
# T1 sequence: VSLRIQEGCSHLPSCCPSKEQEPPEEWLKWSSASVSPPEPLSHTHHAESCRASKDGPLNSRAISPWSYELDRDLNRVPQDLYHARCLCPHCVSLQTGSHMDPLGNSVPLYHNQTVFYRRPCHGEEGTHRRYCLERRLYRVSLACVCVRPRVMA
# assay_details: ELISA, IL-25 coated, goat anti-human kappa light chain-HRP detection
# Procedure: In this study, the ability of three humanized anti-IL-25 antibodies generated in hIgG1 (IL25Ab6 to Ab8) and hIgG1 YTE formats (IL25Ab9 to Ab11) binding to both human, mouse and cynomolgus IL-25 was evaluated using ELISA. […] After the addition of ABTS (Moss Inc., catalog no: ABTS-1000, Lot no: 03086202) substrate, ELISA plates were read using an ELISA plate reader (Bioteck).
parameter: pEC50
Interpret pEC50 as the negative base-10 log of the concentration measured in mol/L.

[Q] Answer with the recorded pEC50 of IL25Ab8 (antibody, IgG1, V domains shown) VH: QVQLVQSGAEVKKPGASVKVSCKASGYSFTGYTMNWVRQAHGKNLEWMGLINPDNGGTSHKQKFQGRVTMTVDKSISTAYMELSRLRSDDTAVYYCAREGYYGPSPFHHYAMDYWGQGTLVTVSS VL: DIQMTQSPSSLSASVGDRVTITCQASQDISNYLNWYQQKPDGTIKLLIYYTSTLHTGVPSRFSGSGSGTDYTLTISSLQPEDIATYYCQQYSKLPYTFGGGTKLEIK only.
[A] 9.48

Source: patent US20260242458A1
